# Tested on: T98G cells
# RUN_DESCRIPTION: Antitumor activity
# Assay type: cell-based, human
# EXPERIMENTAL_PARAMETERS: versus compound 8 (87 nM)
Kindly state Fold increase in EC50 value compared with 8 for each of the entries shown.
Kindly answer with a numeric value in fold, unit omitted.

Sample `CCn1c2ccccc2c2cc(C(=O)c3cccc4ccccc34)ccc21` — what was its Fold increase in EC50 value compared with 8?
20

Sample `CCCn1c2ccccc2c2cc(C(=O)c3ccc(C)c4ccccc34)ccc21` — what was its Fold increase in EC50 value compared with 8?
115

Sample CCn1c2ccccc2c2cc(C(O)c3ccc(C)c4ccccc34)ccc21 (stereo not shown) — what was its Fold increase in EC50 value compared with 8?
6

Sample `Cc1ccc(C(=O)c2ccc3c(c2)c2ccccc2n3CC(F)(F)F)c2ccccc12` — what was its Fold increase in EC50 value compared with 8?
64
